# System: RV SA11 (G3P[2]) strain
# test: In vitro assay of RV replication inhibition (PFA)
# Type: cell-based, Rotavirus
# conditionInfo: Rotavirus; SA11 strain in MA104 cells, representative experiment, 24 h, PFA; read-out: IC50 (Fig 1B plot)
measurementLabel: IC50 (nM)
Give bare numbers, in nM.

[Q] Entry under review: COC1=C2C[C@@H](C)C[C@H](OC)[C@H](O)[C@@H](C)/C=C(\C)[C@H](OC(N)=O)[C@@H](OC)/C=C\C=C(/C)C(=O)NC(=CC1=O)C2=O [GA, geldanamycin] . Reported IC50?
[A] 2.94

---

# test: Cytotoxicity assay (CCK-8)
# Assay type: cell-based, Human
# conditionInfo: human, Caco-2 cells, CCK-8
measurementLabel: CC50 at 24 h

[Q] Please look up its CC50 at 24 h: C=CCNC1=C2C[C@@H](C)C[C@H](OC)[C@H](O)[C@@H](C)/C=C(\C)[C@H](OC(N)=O)[C@@H](OC)/C=C\C=C(/C)C(=O)NC(=CC1=O)C2=O
[A] < 40 µM
